- Test system: MCF 10C cells
- Assay Comment: Cell proliferation (MTT) of transformed breast epithelial cells
- Format: cell-based, human
- Cond: Homo sapiens, Epithelial cell, 72 hr, read-out: IC50 for the MCF 10C derivative
In this section we review reported IC50 values for a set of compounds.

input: Using the record for "CC1(C)C=Cc2cc(CCn3c4ccccc4c4ccccc43)cc(C=O)c2O1" , report its IC50.
output: ~100 nM

New cases:
input: Using the record for CC(=O)c1c(O)c(C)c(O)c(Cc2c(O)c3c(c(C(=O)/C=C/c4ccccc4)c2O)OC(C)(C)C=C3)c1O [rottlerin, Rottlerin, reference compound] , report its IC50.
output: ~1000 nM
